Biological target: α4β7 integrin (Homo sapiens, UniProt P13612+P26010)
Construct: a cell line RPMI-8866, which is known to express α4β7 integrin; endogenous in cells; host or cells: RPMI-8866 (human B cell line)
Sequence (P13612 34-1032): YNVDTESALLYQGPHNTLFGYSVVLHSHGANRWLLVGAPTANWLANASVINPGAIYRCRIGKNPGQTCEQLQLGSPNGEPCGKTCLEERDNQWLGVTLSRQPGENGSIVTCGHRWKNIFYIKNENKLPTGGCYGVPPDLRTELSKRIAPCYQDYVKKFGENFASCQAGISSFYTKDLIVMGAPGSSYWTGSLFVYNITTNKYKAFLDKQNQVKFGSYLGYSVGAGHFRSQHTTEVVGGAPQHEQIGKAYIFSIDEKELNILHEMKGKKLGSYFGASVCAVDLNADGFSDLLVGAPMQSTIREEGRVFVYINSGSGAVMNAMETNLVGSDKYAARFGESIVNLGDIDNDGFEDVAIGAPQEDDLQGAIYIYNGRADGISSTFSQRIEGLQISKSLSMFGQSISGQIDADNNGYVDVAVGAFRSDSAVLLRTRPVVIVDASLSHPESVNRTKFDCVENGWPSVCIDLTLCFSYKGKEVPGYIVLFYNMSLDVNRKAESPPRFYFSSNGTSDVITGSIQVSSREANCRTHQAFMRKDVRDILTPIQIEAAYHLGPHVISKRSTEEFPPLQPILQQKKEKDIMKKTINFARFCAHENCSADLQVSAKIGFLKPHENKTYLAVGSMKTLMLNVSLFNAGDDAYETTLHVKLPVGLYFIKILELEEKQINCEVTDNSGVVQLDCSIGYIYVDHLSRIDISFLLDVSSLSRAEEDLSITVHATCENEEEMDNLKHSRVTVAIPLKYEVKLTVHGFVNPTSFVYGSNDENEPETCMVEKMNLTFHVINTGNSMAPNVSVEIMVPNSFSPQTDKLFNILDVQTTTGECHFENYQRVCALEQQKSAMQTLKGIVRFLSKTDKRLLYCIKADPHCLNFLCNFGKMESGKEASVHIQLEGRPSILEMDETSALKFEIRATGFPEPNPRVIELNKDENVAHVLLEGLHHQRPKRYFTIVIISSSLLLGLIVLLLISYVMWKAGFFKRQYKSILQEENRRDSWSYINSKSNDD
Sequence (P26010 20-798): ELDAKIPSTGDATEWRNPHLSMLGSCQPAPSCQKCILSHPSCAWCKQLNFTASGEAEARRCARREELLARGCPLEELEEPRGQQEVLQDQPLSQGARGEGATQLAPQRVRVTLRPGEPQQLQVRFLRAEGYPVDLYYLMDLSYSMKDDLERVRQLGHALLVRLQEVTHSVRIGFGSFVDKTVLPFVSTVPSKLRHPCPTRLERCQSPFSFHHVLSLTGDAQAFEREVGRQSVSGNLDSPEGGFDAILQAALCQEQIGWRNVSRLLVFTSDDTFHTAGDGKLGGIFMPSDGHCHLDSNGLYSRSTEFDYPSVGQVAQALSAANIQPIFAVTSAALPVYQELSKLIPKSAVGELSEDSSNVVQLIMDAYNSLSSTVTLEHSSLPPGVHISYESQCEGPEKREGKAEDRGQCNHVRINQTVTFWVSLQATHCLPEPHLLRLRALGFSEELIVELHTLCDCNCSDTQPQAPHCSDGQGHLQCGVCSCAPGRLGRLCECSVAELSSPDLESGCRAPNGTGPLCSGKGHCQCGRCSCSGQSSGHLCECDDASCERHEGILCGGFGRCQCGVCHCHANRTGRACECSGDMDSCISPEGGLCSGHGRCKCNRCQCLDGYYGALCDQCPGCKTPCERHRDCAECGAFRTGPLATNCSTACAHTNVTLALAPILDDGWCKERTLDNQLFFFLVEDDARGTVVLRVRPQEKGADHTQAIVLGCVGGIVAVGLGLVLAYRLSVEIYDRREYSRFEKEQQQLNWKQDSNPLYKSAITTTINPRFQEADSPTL
Assay: MAdCAM-1/α4β7 integrin binding inhibitory activity evaluation test in presence of serum
Type: cell-based
Details: RPMI-8866 cells, recombinant mouse MAdCAM-1/Fc, 50% human serum; read-out: α4β7 Serum Added IC50
endpoint.label: IC50 (nM)
Numbers only, in nM.

Look over these answered cases.
- smiles.data: "Cn1ccc(=O)n(-c2ccc(C[C@H](NC(=O)c3cc(F)c(NS(=O)(=O)c4ccc(NC(=O)C(C)(C)C)cc4)cc3F)C(=O)O)cn2)c1=O"
  tested.target: "α4β7 integrin (Homo sapiens, UniProt P13612+P26010)"
  IC50 [nM]: 11
- smiles.data: "CC(=O)Nc1ccc(S(=O)(=O)Nc2cc(F)c(C(=O)N[C@@H](Cc3ccc(-n4c(=O)c5ccncc5n(C)c4=O)cc3)C(=O)O)cc2F)cc1"
  tested.target: "α4β7 integrin (Homo sapiens, UniProt P13612+P26010)"
  IC50 [nM]: 36
- smiles.data: "CCC(CC)C(=O)Nc1ccc(S(=O)(=O)Nc2cc(F)c(C(=O)N[C@@H](Cc3ccc(-n4c(=O)c5ccncc5n(C)c4=O)cc3)C(=O)O)cc2F)cc1"
  tested.target: "α4β7 integrin (Homo sapiens, UniProt P13612+P26010)"
  IC50 [nM]: 10
- smiles.data: "Cc1cc(=O)n(-c2ccc(C[C@H](NC(=O)c3cc(F)c(NS(=O)(=O)c4ccc(NC(=O)C(C)(C)C)cc4)cc3F)C(=O)O)cc2)c(=O)n1C"
  tested.target: "α4β7 integrin (Homo sapiens, UniProt P13612+P26010)"
  IC50 [nM]: 7.6
- smiles.data: "Cc1cn(C)c(=O)n(-c2ccc(C[C@H](NC(=O)c3cc(F)c(NS(=O)(=O)c4ccc(NC(=O)C(C)(C)C(F)(F)F)cc4)cc3F)C(=O)O)cn2)c1=O"
  tested.target: "α4β7 integrin (Homo sapiens, UniProt P13612+P26010)"
  IC50 [nM]: 12
- smiles.data: "CCC(CC)C(=O)Nc1ccc(S(=O)(=O)Nc2cc(F)c(C(=O)N[C@@H](Cc3ccc(-n4c(=O)c(C)c(C)n(C)c4=O)cc3)C(=O)O)cc2F)cc1"
  tested.target: "α4β7 integrin (Homo sapiens, UniProt P13612+P26010)"
  IC50 [nM]: 16
- smiles.data: "Cc1cn(C)c(=O)n(-c2ccc(C[C@H](NC(=O)c3cc(F)c(NS(=O)(=O)c4ccc(NC(=O)C5CCCC5)cc4)cc3F)C(=O)O)cn2)c1=O"
  tested.target: "α4β7 integrin (Homo sapiens, UniProt P13612+P26010)"
  IC50 [nM]: 50
- smiles.data: "Cc1c(C)n(C)c(=O)n(-c2ccc(C[C@H](NC(=O)c3cc(F)c(NS(=O)(=O)c4ccc(NC(=O)C(C)(C)CO)cc4)cc3F)C(=O)O)cc2)c1=O"
  tested.target: "α4β7 integrin (Homo sapiens, UniProt P13612+P26010)"
  IC50 [nM]: 7.2
- smiles.data: "Cc1c(C)n(C)c(=O)n(-c2ccc(C[C@H](NC(=O)c3cc(F)c(NS(=O)(=O)c4ccc(NC(=O)C(C)(C)C)s4)cc3F)C(=O)O)cc2)c1=O"
  tested.target: "α4β7 integrin (Homo sapiens, UniProt P13612+P26010)"
  IC50 [nM]: 10
- smiles.data: "Cn1c2c(c(=O)n(-c3ccc(C[C@H](NC(=O)c4cc(F)c(NS(=O)(=O)c5ccc(NC(=O)C(C)(C)C)cc5)cc4F)C(=O)O)cn3)c1=O)CCOC2"
  tested.target: "α4β7 integrin (Homo sapiens, UniProt P13612+P26010)"
  IC50 [nM]: 4.3

For every record below, what is its IC50?
1. Cn1c2c(c(=O)n(-c3ccc(C[C@H](NC(=O)c4cc(F)c(NS(=O)(=O)c5ccc(NC(=O)C(C)(C)C)cc5)cc4F)C(=O)O)cn3)c1=O)CCCC2
2. Cn1ccc(=O)n(-c2ccc(C[C@H](NC(=O)c3cc(F)c(NS(=O)(=O)c4ccc(NC(=O)C(C)(C)C)cc4)cc3F)C(=O)O)cc2)c1=O
3. COC1(C(=O)Nc2ccc(S(=O)(=O)Nc3cc(F)c(C(=O)N[C@@H](Cc4ccc(-n5c(=O)c(C)c(C)n(C)c5=O)cc4)C(=O)O)cc3F)cc2)CC1
4. Cc1c(C)n(C(C)C)c(=O)n(-c2ccc(C[C@H](NC(=O)c3cc(F)c(NS(=O)(=O)c4ccc(NC(=O)C(C)(C)C)cc4)cc3F)C(=O)O)cc2)c1=O
5. Cn1c(C(F)(F)F)cc(=O)n(-c2ccc(C[C@H](NC(=O)c3cc(F)c(NS(=O)(=O)c4ccc(NC(=O)C(C)(C)C)cc4)cc3F)C(=O)O)cn2)c1=O

1: 4.9; 2: 9.8; 3: 67; 4: 22; 5: 25

For every record below, what is its IC50?
1. Cn1c(=O)n(-c2ccc(C[C@H](NC(=O)c3cc(F)c(NS(=O)(=O)c4ccc(NC(=O)C5(O)CC5)cc4)cc3F)C(=O)O)cc2)c(=O)c2ccncc21
2. Cc1c(C)n(C)c(=O)n(-c2ccc(C[C@H](NC(=O)c3cc(F)c(NS(=O)(=O)c4ccc(NC(=O)C5(C(F)(F)F)CC5)cc4)cc3F)C(=O)O)cc2)c1=O
3. Cc1c(C)n(C)c(=O)n(-c2ccc(C[C@H](NC(=O)c3cc(F)c(NS(=O)(=O)c4ccc(-n5ccc(C6CCOCC6)cc5=O)cc4)cc3F)C(=O)O)cc2)c1=O
4. Cn1ccc(=O)n(-c2ccc(C[C@H](NC(=O)c3cc(F)c(NS(=O)(=O)c4ccc(NC(=O)C5(C(F)(F)F)CC5)cc4)cc3F)C(=O)O)cn2)c1=O
5. Cc1cn(C)c(=O)n(-c2ccc(C[C@H](NC(=O)c3cc(F)c(NS(=O)(=O)c4ccc5c(NC(=O)C(C)(C)C)c[nH]c5c4)cc3F)C(=O)O)cn2)c1=O
6. Cn1c(=O)n(-c2ccc(C[C@H](NC(=O)c3cc(F)c(NS(=O)(=O)c4ccc(NC(=O)NC(C)(C)C)cc4)cc3F)C(=O)O)cc2)c(=O)c2ccncc21
7. CN1CCc2c(n(C)c(=O)n(-c3ccc(C[C@H](NC(=O)c4cc(F)c(NS(=O)(=O)c5ccc(NC(=O)C(C)(C)C)cc5)cc4F)C(=O)O)cc3)c2=O)C1

1: 32; 2: 17; 3: 24; 4: 33; 5: 50; 6: 70; 7: 1.9

Attribution: patent US10562898B2
